Test: Urinary recovery in mice after intramuscular administration
Type: in vivo
Details: mouse, urine, im, 20 mg/kg, 6-24 hours, 20 mg/kg i.m., read-out: Percentage of Dose Recovered (urine)
Measured quantity: dose excreted at 24 h
Note: a bare number is incomplete; add the unit.

Summary for this compound, C[C@@H](O)[C@H]1C(=O)N2C(C(=O)[O-])=C(SCC[n+]3ccccc3)C[C@H]12 [Example 1] : dose excreted at 24 h is 0.4%

====

Test system: S. marcescens A20019
# MIC values compiled below
Please respond with the number in µg/mL and leave the unit unwritten.

CC(C[n+]1ccccc1)SC1=C(C(=O)[O-])N2C(=O)[C@H]([C@@H](C)O)[C@H]2C1 (single isomer, unassigned)	0.06
Cc1cccc(C)[n+]1CCSC1=C(C(=O)[O-])N2C(=O)[C@H]([C@@H](C)O)[C@H]2C1	0.06
C[C@@H](O)[C@H]1C(=O)N2C(C(=O)[O-])=C(SCC[n+]3ccc(CO)cc3)C[C@H]12	0.06
Cc1cccc[n+]1CCSC1=C(C(=O)[O-])N2C(=O)[C@H]([C@@H](C)O)[C@H]2C1	0.03
CSc1ccc[n+](CCSC2=C(C(=O)[O-])N3C(=O)[C@H]([C@@H](C)O)[C@H]3C2)c1	0.06
CSc1n(C)cc[n+]1CCSC1=C(C(=O)[O-])N2C(=O)[C@H]([C@@H](C)O)[C@H]2C1	0.06

# lookup: CSc1cc[n+](CCSC2=C(C(=O)[O-])N3C(=O)[C@H]([C@@H](C)O)[C@H]3C2)cc1 on S. marcescens A20019, MIC = 0.06

Entry C[C@@H](O)[C@H]1C(=O)N2C(C(=O)[O-])=C(SCC[n+]3cccc(N)c3)C[C@H]12 : MIC on S. marcescens A20019 = 0.06

Summary line: C[C@@H](O)[C@H]1C(=O)N2C(C(=O)[O-])=C(SC3CCCCC3[n+]3ccccc3)C[C@H]12 (single isomer, unassigned) , S. marcescens A20019, reported MIC = 0.13

====

Readings of dose excreted for the listed molecules
Assay: Pharmacokinetic parameters in the mouse after intramuscular dose
Format: in vivo, mice
Conditions: urine, im, 20 mg/kg, read-out: Urine Recovery

Example results:
Cc1cccc[n+]1CCSC1=C(C(=O)[O-])N2C(=O)[C@H]([C@@H](C)O)[C@H]2C1 [Example 7]	49%
C[C@@H](O)[C@H]1C(=O)N2C(C(=O)[O-])=C(SCC[n+]3ccc(CO)cc3)C[C@H]12 [Example 6]	38%

dose excreted measured on Cc1cc[n+](CCSC2=C(C(=O)[O-])N3C(=O)[C@H]([C@@H](C)O)[C@H]3C2)cc1 [Example 8] = 47%

Record Cc1cc(C)c[n+](CCSC2=C(C(=O)[O-])N3C(=O)[C@H]([C@@H](C)O)[C@H]3C2)c1 [Example 4] . Reported dose excreted: 49%

====

Test: Urinary recovery in mice after intramuscular administration
Assay type: in vivo
Conditions: mouse, urine, im, 20 mg/kg, 3-6 hours, 20 mg/kg i.m., read-out: Percentage of Dose Recovered (urine)
Measured quantity: dose excreted at 6 h (%)
Hi! Could you send only the number? It should be in %, unit omitted.

Reported dose excreted at 6 h of C[C@@H](O)[C@H]1C(=O)N2C(C(=O)[O-])=C(SCC[n+]3ccccc3)C[C@H]12 : 0.5

====

Tested on: B. fragilis A22696
Test: Minimum Inhibitory Concentration, tube dilution
Assay type: cell-based
Conditions: Bacteroides fragilis, overnight 37° C., table 6, read-out: MIC
Measured quantity: MIC
Answer with the value and then the unit.

In the examples that follow, each entry is paired with its recorded MIC.
C[C@@H](O)[C@H]1C(=O)N2C(C(=O)[O-])=C(SCC[n+]3cccc(CO)c3)C[C@H]12	0.5 µg/mL
CC(C[n+]1ccccc1)SC1=C(C(=O)[O-])N2C(=O)[C@H]([C@@H](C)O)[C@H]2C1 (single isomer, unassigned)	0.25 µg/mL
Cc1cccc(C)[n+]1CCSC1=C(C(=O)[O-])N2C(=O)[C@H]([C@@H](C)O)[C@H]2C1	0.25 µg/mL

# next compound below
According to the records, this compound Cc1cc(C)c[n+](CCSC2=C(C(=O)[O-])N3C(=O)[C@H]([C@@H](C)O)[C@H]3C2)c1 displays MIC of 0.25 µg/mL

====

Test: Blood levels in mice after intramuscular administration
Assay type: in vivo
Settings: mouse, im, 20 mg/kg i.m.
Excerpt: a single test; 4 mice used per compound.
Measured quantity: half-life

// half-life lookup, compound = C[C@@H](O)[C@H]1C(=O)N2C(C(=O)[O-])=C(SCC[n+]3ccccc3)C[C@H]12 , result: 9 min

====

Assay: Half-life in phosphate buffer pH 7.4
Assay type: physicochemical
Settings: phosphate buffer, pH 7.4, τ1/2 (half-life)
Measured quantity: half-life at 100 µM (h)
# number only, unit h dropped from output

CC(C[n+]1ccccc1)SC1=C(C(=O)[O-])N2C(=O)[C@H]([C@@H](C)O)[C@H]2C1 (single isomer, unassigned)	12.6

The compound identified as Cc1cccc[n+]1CCSC1=C(C(=O)[O-])N2C(=O)[C@H]([C@@H](C)O)[C@H]2C1 registered its half-life at 100 µM at 15

Lab book: half-life at 100 µM of Cc1cc[n+](CCSC2=C(C(=O)[O-])N3C(=O)[C@H]([C@@H](C)O)[C@H]3C2)cc1 noted as 12.8

Quick note, half-life at 100 µM for Cc1cc(C)c[n+](CCSC2=C(C(=O)[O-])N3C(=O)[C@H]([C@@H](C)O)[C@H]3C2)c1 landed at 16.9

Short answer for C[C@@H](O)[C@H]1C(=O)N2C(C(=O)[O-])=C(SCC[n+]3ccccc3)C[C@H]12 : half-life at 100 µM was 13.5

====

Experiment: Urinary recovery in mice after intramuscular administration
Type: in vivo
Details: mouse, urine, im, 20 mg/kg, 0-3 hours, 20 mg/kg i.m., read-out: Percentage of Dose Recovered (urine)
Measured quantity: dose excreted at 3 h

The recorded dose excreted at 3 h for C[C@@H](O)[C@H]1C(=O)N2C(C(=O)[O-])=C(SCC[n+]3ccccc3)C[C@H]12 is 23.3%

====

Measured ED50 of individual entries
Tested on: P. aeruginosa A9843A
Test: animal or person
Format: in vivo, mice
Details: Pseudomonas aeruginosa, in Mus musculus, im, read-out: PD50 /treatment

Consider the worked cases shown below.
CSc1cc[n+](CCSC2=C(C(=O)[O-])N3C(=O)[C@H]([C@@H](C)O)[C@H]3C2)cc1	3.1 mg/kg
COc1ccc[n+](CCSC2=C(C(=O)[O-])N3C(=O)[C@H]([C@@H](C)O)[C@H]3C2)c1	1.8 mg/kg

Short answer for Cc1cccc(C)[n+]1CCSC1=C(C(=O)[O-])N2C(=O)[C@H]([C@@H](C)O)[C@H]2C1 : ED50 was > 25 mg/kg

====

Recorded MIC for the following compounds
Test system: S. pneumoniae A-9585
Experiment: Minimum Inhibitory Concentration, tube dilution
Format: cell-based
Settings: Streptococcus pneumoniae, A9585, overnight 37° C.; table 6
I only need the number, in ng/mL, no unit after it.

// worked examples, MIC included
Cc1cccc(C)[n+]1CCSC1=C(C(=O)[O-])N2C(=O)[C@H]([C@@H](C)O)[C@H]2C1	2
CSc1n(C)cc[n+]1CCSC1=C(C(=O)[O-])N2C(=O)[C@H]([C@@H](C)O)[C@H]2C1	1
C[C@@H](O)[C@H]1C(=O)N2C(C(=O)[O-])=C(SCC[n+]3cccc(CO)c3)C[C@H]12	30
C[C@@H](O)[C@H]1C(=O)N2C(C(=O)[O-])=C(SC3CCCCC3[n+]3ccccc3)C[C@H]12 (single isomer, unassigned)	2
C[C@@H](O)[C@H]1C(=O)N2C(C(=O)[O-])=C(SCC[n+]3cccc(N)c3)C[C@H]12	2

Query C[C@@H](O)[C@H]1C(=O)N2C(C(=O)[O-])=C(SCC[n+]3ccc(CO)cc3)C[C@H]12 yields MIC of 30

// recorded MIC for CSc1ccc[n+](CCSC2=C(C(=O)[O-])N3C(=O)[C@H]([C@@H](C)O)[C@H]3C2)c1 : 1

The reported numbers originate from patent US4642341A.
